# EXPERIMENTAL_PROTOCOL: oral bioavailability in rats, radioimmunoassay (RIA) detection
# ASSAY_SETUP: female, CD, rat, in vivo, 10 mg/kg intravenous, read-out: AUCi.v.,(0-6h) (converted)
# Description: Oral bioavailability was also determined using a radioimmunoassay (RIA) detection method. […] Blood was drawn from all dosed animals by retro-orbital eye bleeding at specific intervals and test compound levels were analyzed by radioimmunoassay (RIA). […] Radioactivity was measured in a LS 6500 scintillation counter (Beckman-Coulter). The binding efficiency is defined as the percent radioactivity in the B0 sample compared to the input counts. The percent bound in each sample was calculated by the equation: […]
Bridge positions count the residues as written; N and C are the ends. Peptide text beside a SMILES is read from it.

COMPOUND	AUC (ng·h/mL)
C[C@@H]1NC(=O)[C@@H]2CCCN2C(=O)[C@H](CC(N)=O)NC(=O)[C@@H]2CSSC[C@H](N)C(=O)N[C@H]3CSSC[C@H](NC1=O)C(=O)N[C@@H]([C@@H](C)O)C(=O)NCC(=O)N[C@H](C(=O)N[C@@H](Cc1ccc(O)cc1)C(=O)O)CSSC[C@H](NC(=O)[C@H](Cc1ccc(O)cc1)NC(=O)[C@H](CCC(=O)O)NC3=O)C(=O)N2 [SEQ ID NO:3] (H-CCEYCCNPACTGCY-OH; disulfide 1-6, 2-10, 5-13; N-terminus and C-terminus assumed)	23700
